// provenance: patent US20090035322A1

Percent of Binding to Mutant Human CD20 listing for selected binders.
Target: T1, mutant human CD20 #10 (A157V) (human, UniProt P11836 1-297)
T1 construct: Stably expressed on MG87 cells
T1 sequence: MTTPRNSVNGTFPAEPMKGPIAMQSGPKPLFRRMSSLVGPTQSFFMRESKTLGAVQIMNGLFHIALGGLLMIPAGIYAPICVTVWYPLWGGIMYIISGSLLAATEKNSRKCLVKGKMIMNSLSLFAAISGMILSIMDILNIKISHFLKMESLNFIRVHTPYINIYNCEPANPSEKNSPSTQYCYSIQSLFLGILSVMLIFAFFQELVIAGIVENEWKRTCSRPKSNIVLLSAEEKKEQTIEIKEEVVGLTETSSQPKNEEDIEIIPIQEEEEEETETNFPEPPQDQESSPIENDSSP
Test: FACS, mutant-hCD20 MG87 cells; 100%=best antibody
Number in %, nothing else.

Consider the worked cases shown below.
Exercise: Item under review: 9D4-7 (antibody, V domains shown, Fully human IgG, constant region not specified; also called 9D4-7N) VH: EVQLVESGGGLVQPGRSLRLSCAASGFTFYDYAMHWVRQAPGKGLEWVSGISWNSDTIGYADSVKGRFTISRDNAKNSLYLQMNSLRAEDTALYYCTKDGSYGHFYSGLDVWGQGTTVTVSS VL: EIVLTQSPATLSLSPGERATLSCRASQSVSSYLAWYQQKPGQAPRLLIYVASNRATGIPARFSGSGSGTDFTLTISSLEPDDFAVYYCQQRYYWPLTFGGGTKVEIK . Reported Percent of Binding to Mutant Human CD20?
Solution: 75

Exercise: Which Percent of Binding to Mutant Human CD20 value belongs to 2F2 (antibody, V domains shown) VH: EVQLVESGGGLVQPGRSLRLSCAASGFTFNDYAMHWVRQAPGKGLEWVSTISWNSGSIGYADSVKGRFTISRDNAKKSLYLQMNSLRAEDTALYYCAKDIQYGNYYYGMDVWGQGTTVTVSS VL: EIVLTQSPATLSLSPGERATLSCRASQSVSSYLAWYQQKPGQAPRLLIYDASNRATGIPARFSGSGSGTDFTLTISSLEPEDFAVYYCQQRSNWPITFGQGTRLEIK ?
Solution: 79

Next item in the queue.
Exercise: Please look up its Percent of Binding to Mutant Human CD20: 3H7-6 (antibody, V domains shown, Fully human IgG, constant region not specified; also called 3H7-6N) VH: EVQLVESGGGLVQPGRSLRLSCAASGFTFYDYAMHWVRQAPGKGLEWVSGISWNSGYIGYADSVKGRFTISRDNAKNSLYLQMNSLRAEDTALYYCAKDNSYGKFYYGLDVWGQGTTVTVSS VL: EIVMTQSPATLSVSPGERTTLSCRASQSVSSNLAWYLQKPGQAPRLLIYGASTRATGIPARFSGSGSGTEFILTISSLQSEDFAVYYCQQYNNWPITFGQGTRLEIK
Solution: 80
